TEST_NAME: soluble on expression in E. coli; label from the status in PepcDB or PDB records
QUANTITY_NAME: soluble on expression in E. coli

Below are worked cases with known answers.
MGSDKIHHHHHHLLGDDPFLVINGDVFIDTLPVMPELKSINPDNGCLAHLWLVENPSQHPNGDFGFVSQEGVTTAELSQGPLSADLKLNFTFSGIGLYHPQLFDDIPEGPVPLGPLLREKMALGQVQGQLHRSFWCDVGTLERLAQLETRLELAARR :: not soluble
MSKVMNALKQSQQKYLQAQPVSRRTYTEQEPTAMNPSRWLHLALWLVPGLVTAGVMTYQRYELVQQEVANRQTEPTTVQVDAPLERLAYPEFQDLQPTFVESGLDEPYPEEDVTALADNIVAPPATIQASGQQSASNKALGDLDLTQLSPELALRVQAIMRDQSSEPATPSTPTSAAVSLTQHSDRYQGQLPALNFQMHAFSSNEQKRWIKVNGVEYREGDMLTPEVKLESIKPQSSVIIFGGEEIEIPALYDWKG :: not soluble
MIFMRKVVAEVSIIPLGKGASVSKYVKKAIEVFKKYDLKVETNAMGTVLEGDLDEILKAFKEAHSTVLNDVDRVVSSLKIDERKDKENTIERKLKAIGEL :: soluble
MGSDKIHHHHHHMEDTQSVLQEYGLTAQFIEPVSPLVWKVYTDYGIFALKKLKEGRGKHFTDHMVAIEEKGFRSFVPVYRTNSGEFFSAGIQYGDIYYLMPWLQFDQEEERDQKHAYLFRETARLHERTAQELKVRRDEIERYYGQTKKKWEQDKIFYEQFVDRAEKEWYLSPFELQAITYFSETISAVNFALERLEDWYESAKEKDVSRVVMNHGSLSIHHFLYNDAGTGYFTNFERASVGPPQNDLLGFYTKMFRGFPKACPECVEWFYGYTKSFPLREAEVSLFLSYMAYPAAMYKVLNGYQTGKRQHEKEECTQLLKAYWQMKNIEPFVMKIHQIEQEKKFQAENESTS :: not soluble
MIEQFNFDIRLIFAILNGKVSAAINRKLYRNFRQNGLEISPEQWTVLIFLWEKDGVTQQELCNATFKDKPSMTRLIDNMERQHLVVRISDKKDRRTNLIHLTKDGKELEEKARIIAGQTLKEALHGITLEELSIGQEVLKKVFYNTKD :: not soluble

Consider the following items and state reported soluble on expression in E. coli for each.
1. MAILGLGTDIVEISRIQAVVERTGERLARRILSPSEWQHYQQHQQPVRFLAKRFAVKEAAAKAFGTGIRNGLAFNQFEVVNDALGKPTLRLHSRAAELAVELGVKSLHVTLADERRYACATVIIES
2. MSKTFRVSKVTSGNSKAIQQTKPITILLMGVDTGSKGRKETWEGNSDTMILVTVNPKTKRTTMTSLERDLLADVEGSGEAKLNSAYAEGGADLAISTIQKVLDIDIDYYALINMHGMIDLVDAVGGIEVTNHFDFPISIAENEPEFQAKVEPGTHKINGEQALVYSRMRYDDPDGDYGRQKRQREVIQKIVAKLLKMDSIGSYKKILSAVSSNVQTSINLGDSTTLRGLMGYSEALKNIKSYQLAGSDAMINGGSYQVASTEDILKVQNRIKKEVGKKGVSESKLKTSLVLNDFGTSSYVSDDFVNSTGSYEAGPSEATGGGSVSTYYGGTTYGNSYTENTSNYVQDQATTAPTINYNGSGVTTYNLVPAAQLEHHHHHH
3. GEVRNIVDKTASFVARNGPEFEARIRQNEINNPKFNFLNPNDPYHAYYRHKVSEFKEGKAQEPS
4. MKKVKLIGTLDYGKYRYPKNHPLKIPRVSLLLRFKDAMNLIDEKELIKSRPATKEELLLFHTEDYINTLMEAERSQSVPKGAREKYNIGGYENPVSYAMFTGSSLATGSTVQAIEEFLKGNVAFNPAGGMHHAFKSRANGFCYINNPAVGIEYLRKKGFKRILYIDLDAHHCDGVQEAFYDTDQVFVLSLHQSPEYAFPFEKGFLEEIGEGKGKGYNLNIPLPKGLNDNEFLFALEKSLEIVKEVFEPEVYLLQLGTDPLLEDYLSKFNLSNVAFLKAFNIVREVFGEGVYLGGGGYHPYALARAWTLIWCELSGREVPEKLNNKAKELLKSIDFEEFDDEVDRSYMLETLKDPWRGGEVRKEVKDTLEKAKASS

1. not soluble
2. soluble
3. soluble
4. soluble

Consider the following items and state reported soluble on expression in E. coli for each.
1. MSHLALKDLFSGFFVIDDEEEVEVPDKQQQVNEAPAKEQSQQTTKQNAIKSVPQKSASRYTTTSEERNNRMSNYSKNNSRNVVTMNNATPNNASQESSKMCLFEPRVFSDTQDIADELKNRRATLVNLQRIDKVSAKRIIDFLSGTVYAIGGDIQRVGTDIFLCTPDNVEVAGSITDHIENMEHSFDLEHHHHHH
2. MAHHHHHHMGKFVAEQYLRRGVSVTVLARDIAKAKSLFLPIADGQREQNRLASMGYRQLSSAAEKREMTASLHYRDFRRGDRHVLRYEFRNPRSVGGPSAGSANASCDQRFALELVEGDVGSTQDLEFSMRHASIVFYLTAALEEASGPALRADDRLRSSAAWWSLGSWFCGGRRFGGFLHALDACRRVDAHFVALTPLWVHGSCLSPFYWYRRLLTHPRGYCKAVQLQEQTLLSQSGSPGARCSLGADELEARQPGGDWGCWWRSRLSTEPPDDILIKSRSPVRFSLFRLSDVVFPSFNERIVASKNNRVDDDLHVTFIQQGDLDARLLANVLVKSIGLCNSVVESRIDIGGSLRGGTDMRDANAIFDLFEQLRNE
3. MFKVNEYFDGTVKSIAFSQAEGQATIGVMAAGEYEFGTAQREIMHVISGELNVKLPDSTDWETFSTGSQFNVPANSKFQLKVSVDTAYLCEYR
4. MGSRENLYFQGLEHHHHHHHMKNVKTLIAAAILSSMSFASFAAVEVQSTPEGQQKVGTISANAGTNLGSLEEQLAQKADEMGAKSFRITSVTGPNTLHGTAVIYK
5. GPGSMSANDVQNPPVEDDEVPTLEAADTQQASKPSKRYAKAMAKMGLKPEPNISKVHIRKRAALSFVVNQPEVYRFPGTNTFLIFGEAQLGDTTMQTQEAAARAVSGALVEEVGTAGEETSELAGETPAAAAPSESKQTPDDVEIVEGEFDDKEIAVVMAQGKTDRIGAIRALRNNKGDIVNAIMELTMDPN

["not soluble", "not soluble", "not soluble", "soluble", "not soluble"]
